target: MLE dsRBD1+2 S5A (Drosophila, UniProt P24785 1-264, S5A); test: fluorescence polarization; FP: 80 nM 3'-FAM RNA stock mixed 1:1 with protein, buffer D (composition not in material), 15 min, 20 C; EMSA: 1200 nM RNA stock mixed 1:1 with protein, buffer; details: protein: recombinant; tags: SUMO tag removed by ULP1; label: 3'-FAM; hairpin, 13 nt loop (C135-C147)
Sequence (P24785 1-264 S5A): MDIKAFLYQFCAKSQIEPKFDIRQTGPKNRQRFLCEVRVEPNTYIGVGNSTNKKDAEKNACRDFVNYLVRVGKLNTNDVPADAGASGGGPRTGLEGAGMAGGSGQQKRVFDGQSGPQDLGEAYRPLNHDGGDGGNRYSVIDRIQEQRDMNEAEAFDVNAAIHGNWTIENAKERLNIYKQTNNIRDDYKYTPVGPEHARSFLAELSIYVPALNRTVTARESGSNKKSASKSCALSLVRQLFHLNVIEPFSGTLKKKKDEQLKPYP
observable: Kd (nM)
# number only, unit nM dropped from output

Q: Fill in the blank: the reported Kd of R2H1 55mer (FAM) (structured_RNA) RNA: GCUUUAGAGAUCGUUUCGAAUCACAUUGAUAAUCGUUCGAAACGUUCUCCGAAGC is ____.
Ans: 1800

// data source = paper PMC6451107
